target: firefly luciferase (Photinus pyralis, UniProt P08659); assay: Quaternary ammonium/phosphonium detergent screen, firefly luciferase (Example 5); format: biochemical; conditions: final conc. 0.03% detergent; Tergitol NP-9 present; read-out: Retained Firefly Luciferase Luminescence (%)
Sequence (P08659 whole entry): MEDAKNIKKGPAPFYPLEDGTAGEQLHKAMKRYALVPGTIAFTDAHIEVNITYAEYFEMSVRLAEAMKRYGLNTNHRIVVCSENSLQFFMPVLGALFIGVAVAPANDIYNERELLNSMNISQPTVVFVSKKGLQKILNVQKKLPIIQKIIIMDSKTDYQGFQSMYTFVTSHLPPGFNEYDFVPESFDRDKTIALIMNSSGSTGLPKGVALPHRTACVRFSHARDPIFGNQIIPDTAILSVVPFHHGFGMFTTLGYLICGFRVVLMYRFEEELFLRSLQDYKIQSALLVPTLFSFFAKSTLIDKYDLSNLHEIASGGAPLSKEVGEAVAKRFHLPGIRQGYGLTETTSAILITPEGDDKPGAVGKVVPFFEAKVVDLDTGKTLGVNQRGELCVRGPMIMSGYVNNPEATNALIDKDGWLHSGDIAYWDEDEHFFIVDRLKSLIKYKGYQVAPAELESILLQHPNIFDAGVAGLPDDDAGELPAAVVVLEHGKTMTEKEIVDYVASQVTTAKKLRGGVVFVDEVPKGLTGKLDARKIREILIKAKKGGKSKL
remaining activity at 0.03 % values, listed per item
Lab book: enter the figure in %, no units written.

• CC[N+](CC)(CC)Cc1ccccc1.[Br-] [Benzyltriethylammonium bromide] = 97
• CCCCCCCCCCC(C(=O)c1ccc(OC)cc1)[N+](C)(C)C.[Br-] (stereo not drawn) = 106
• CCCCCCCCCC[N+](C)(C)Cc1ccccc1.[Cl-] [Benzyldimethyldecylammonium chloride] = 114
• C[P+](CCCC(=O)O)(c1ccccc1)c1ccccc1.[Cl-] = 98
• CC[P+](CC)(CC)Cc1ccccc1.[Br-] [Benzyltriethylphosphonium bromide] = 97

Qu. Indicate the recorded remaining activity at 0.03 % value for this molecule: CCCC[P+](CCCC)(CCCC)Cc1ccc(C)cc1.[Cl-]
Ans. 99

---

remaining activity at 0.5 % values, listed per item
Target: Renilla luciferase (Renilla reniformis, UniProt P27652)
Sequence (P27652 1-311): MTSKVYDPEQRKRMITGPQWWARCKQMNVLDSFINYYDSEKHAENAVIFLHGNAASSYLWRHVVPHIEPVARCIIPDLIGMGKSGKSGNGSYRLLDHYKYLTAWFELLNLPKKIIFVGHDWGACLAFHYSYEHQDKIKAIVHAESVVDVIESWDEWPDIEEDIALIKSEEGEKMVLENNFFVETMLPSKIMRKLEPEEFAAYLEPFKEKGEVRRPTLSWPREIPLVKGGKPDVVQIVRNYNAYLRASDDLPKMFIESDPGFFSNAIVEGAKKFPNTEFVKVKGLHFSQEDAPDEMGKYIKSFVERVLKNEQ
Experiment: biochemical
Format: biochemical
Details: 0.5% detergent in Renilla Luciferase Assay Reagent; read-out: Retained Renilla Luciferase Luminescence (%)
Lab book: enter the figure in %, no units written.

Answered examples (3):
* CCCCCCCCCCCC[N+](C)(C)Cc1ccccc1.[Br-] [Benzyldimethyldodecylammonium bromide] | 0.08
* C[N+](C)(C)CCCCCC[N+](C)(C)C [Hexamethonium bromide] | 91
* CCCCCCCC[N+](CCCCCCCC)(CCCCCCCC)CCCCCCCC.[Br-] [Tetraoctylammonium bromide] | 43.1

Qu. Indicate the recorded remaining activity at 0.5 % value for this compound: Cc1cc(C)c(C[N+](C)(C)C)cc1C.[Br-]
Ans. 1.87

Qu. Indicate the recorded remaining activity at 0.5 % value for this compound: C[N+](C)(C)CCCCCBr.[Br-] [(5-Bromopentyl)trimethylammonium bromide]
Ans. 75

---

target: Renilla luciferase (Renilla reniformis); assay: Quaternary ammonium/phosphonium detergent screen, Renilla luciferase (Example 5); type: biochemical; conditions: final conc. 0.10% detergent
Selectivity Value values, listed per item
The reply should be a number, written without any unit.

- CC[N+](CC)(CCC(=O)Nc1c(C)cccc1C)Cc1ccccc1.O=C([O-])c1ccccc1: 2.2
- C[P+](CCCC(=O)O)(c1ccccc1)c1ccccc1.[Cl-]: 0.9
- C[N+](C)(Cc1ccccc1)c1ccccc1.[Br-] [Benzyldimethylphenylammonium bromide]: 1.3

Qu. Determine reported Selectivity Value for CC1(C)C=Cc2ccccc2[N+]1(C)C.[I-] ; test system: Renilla luciferase (Renilla reniformis).
Ans. 1.2

Qu. Determine reported Selectivity Value for CCCCCCCCCC[N+](C)(C)Cc1ccccc1.[Cl-] [Benzyldimethyldecylammonium chloride] ; test system: Renilla luciferase (Renilla reniformis).
Ans. 112

Qu. Determine reported Selectivity Value for C=CCCC[P+](c1ccccc1)(c1ccccc1)c1ccccc1.[Br-] ; test system: Renilla luciferase (Renilla reniformis).
Ans. 4.9

Qu. Determine reported Selectivity Value for C[N+](C)(Cc1ccccc1)c1ccccc1.[Cl-] [Benzyldimethylphenylammonium chloride] ; test system: Renilla luciferase (Renilla reniformis).
Ans. 4.6

Qu. Determine reported Selectivity Value for C[N+]1(C)CCCc2cccc(O)c21.[I-] ; test system: Renilla luciferase (Renilla reniformis).
Ans. 0.8

Qu. Determine reported Selectivity Value for C=C(C)[P+](C)(c1ccccc1)c1ccccc1.[I-] ; test system: Renilla luciferase (Renilla reniformis).
Ans. 2.1

Qu. Determine reported Selectivity Value for CCCCCCCCCCC(C(=O)c1ccc(OC)cc1)[N+](C)(C)C.[Br-] (stereo not shown) ; test system: Renilla luciferase (Renilla reniformis).
Ans. 52

---

molecular target: firefly luciferase (Photinus pyralis, UniProt P08659); experiment: Detergent titration with Tergitol NP-9, digitonin or no lysing agent, firefly luciferase (Example 4); type: biochemical; conditions: 0.0500% detergent; Terg (0.5% Tergitol NP-9); read-out: Relative Firefly Luc Intensity
Strictly below 50% in remaining activity at 0.05 %: Satisfied. Otherwise: Not satisfied.

• Cc1cc(C)c(C[N+](C)(C)C)cc1C.[Br-] = Satisfied
• CCCCC[N+](CCCCC)(CCCCC)CCCCC.[Br-] [Tetrapentylammonium bromide] = Not satisfied
• CCCCCCCCCCCCCC[N+](C)(C)Cc1ccccc1.[Br-] [Benzyldimethyltetradecylammonium bromide] = Satisfied

Qu. For this compound, is remaining activity at 0.05 % lower than 50%? CCCCCCCCCCCCCCCC[N+](C)(C)C.[Cl-] [Cetyltrimethylammonium chloride]
Ans. Satisfied

Qu. For this compound, is remaining activity at 0.05 % lower than 50%? CCCCCCCCCCCC[N+](C)(C)C.[Br-] [Dodecyltrimethylammonium bromide]
Ans. Not satisfied

---

biological target: Renilla luciferase (Renilla reniformis); assay: Non-detergent compound screen, Renilla luciferase (Example 6); assay type: biochemical; conditions: inhibitor 10 μM
Selectivity Value values, listed per item
The reply should be a number, written without any unit.

Answered examples (4):
- COc1ccc(CNC(=O)/C=C/c2ccc3[nH]cc(CCCN(C)C)c3c2)cc1 [Compound 3071]: 1.8
- COc1ccc(CNC(=O)/C=C/c2ccc3[nH]cc(CCN(C)C)c3c2)c(OC)c1 [Compound 3051]: 1.9
- CCCCCC[N+](C)(C)CCc1c[nH]c2ccc(/C=C/C(=O)NCc3ccc(OC)cc3)cc12.[I-] [Compound 3078]: 20
- COc1ccc(CNC(=O)/C=C/c2ccc3c(ccc[n+]3C)c2)cc1.[I-] [Compound 3061]: 1.1

Qu. Determine reported Selectivity Value for CCCC[N+](C)(C)CCc1c[nH]c2ccc(/C=C/C(=O)NCc3ccc(OC)cc3)cc12.[I-] [Compound 3077] ; test system: Renilla luciferase (Renilla reniformis).
Ans. 20

Qu. Determine reported Selectivity Value for COc1cc(OC)c(CNC(=O)/C=C/c2ccc3[nH]cc(CCN(C)C)c3c2)c(OC)c1 [Compound 3073] ; test system: Renilla luciferase (Renilla reniformis).
Ans. 0.99

Qu. Determine reported Selectivity Value for CN(C)CCc1c[nH]c2ccc(/C=C/C(=O)N3CCOCC3)cc12 [Compound 3064] ; test system: Renilla luciferase (Renilla reniformis).
Ans. 1.3

Qu. Determine reported Selectivity Value for CN(C)CCc1c[nH]c2ccc(/C=C/C(=O)NCc3ccc([N+](=O)[O-])cc3)cc12 [Compound 3063] ; test system: Renilla luciferase (Renilla reniformis).
Ans. 1.6

Qu. Determine reported Selectivity Value for COc1cc(CNC(=O)/C=C/c2ccc3[nH]cc(CCN(C)C)c3c2)cc(OC)c1OC [Compound 3072] ; test system: Renilla luciferase (Renilla reniformis).
Ans. 1

---

target: firefly luciferase (Photinus pyralis); assay: biochemical; settings: 0.5% detergent in Luciferase Assay Reagent; read-out: Retained Firefly Luciferase Luminescence (%)
remaining activity at 0.5 % values, listed per item
Lab book: enter the figure in %, no units written.

- CCCCCCCCCCCCCC[N+](C)(C)Cc1ccccc1.[Br-] [Benzyldimethyltetradecylammonium bromide]: 0.21

Qu. Determine reported remaining activity at 0.5 % for CCCCCCCC[N+](CCCCCCCC)(CCCCCCCC)CCCCCCCC.[Br-] [Tetraoctylammonium bromide] ; test system: firefly luciferase (Photinus pyralis).
Ans. 43.7

Qu. Determine reported remaining activity at 0.5 % for CCCCCCCCCCCC[N+](C)(C)C.[Br-] [Dodecyltrimethylammonium bromide] ; test system: firefly luciferase (Photinus pyralis).
Ans. 42.1

Qu. Determine reported remaining activity at 0.5 % for [Br-].c1ccc([P+](c2ccccc2)(c2ccccc2)c2ccccc2)cc1 [Tetraphenylphosphonium bromide] ; test system: firefly luciferase (Photinus pyralis).
Ans. 90.9

Qu. Determine reported remaining activity at 0.5 % for CCCCCCCCCCCC[N+](C)(C)Cc1ccccc1.[Br-] [Benzyldimethyldodecylammonium bromide] ; test system: firefly luciferase (Photinus pyralis).
Ans. 20.7

Qu. Determine reported remaining activity at 0.5 % for Cc1cc(C)c(C[N+](C)(C)C)cc1C.[Br-] ; test system: firefly luciferase (Photinus pyralis).
Ans. 0.06

Qu. Determine reported remaining activity at 0.5 % for C[N+](C)(C)CCCCCBr.[Br-] [(5-Bromopentyl)trimethylammonium bromide] ; test system: firefly luciferase (Photinus pyralis).
Ans. 79.1

Qu. Determine reported remaining activity at 0.5 % for C[N+](C)(C)CCCCCC[N+](C)(C)C [Hexamethonium bromide] ; test system: firefly luciferase (Photinus pyralis).
Ans. 96

Qu. Determine reported remaining activity at 0.5 % for CCCCC[N+](CCCCC)(CCCCC)CCCCC.[Br-] [Tetrapentylammonium bromide] ; test system: firefly luciferase (Photinus pyralis).
Ans. 80.9

Qu. Determine reported remaining activity at 0.5 % for C[C@H](CCC(=O)NCCS(=O)(=O)O)[C@H]1CC[C@H]2[C@@H]3CC[C@@H]4C[C@H](O)CC[C@]4(C)[C@H]3CC[C@]12C [Taurolithocholic acid] ; test system: firefly luciferase (Photinus pyralis).
Ans. 81.3

Qu. Determine reported remaining activity at 0.5 % for C[N+](C)(C)CCCBr.[Br-] [(3-Bromopropyl)trimethylammonium bromide] ; test system: firefly luciferase (Photinus pyralis).
Ans. 72.2
